Biological target: HRgpA-6H (Porphyromonas gingivalis) (UniProt P28784)
Assay: ELISA, FASEBA Fab on coated HRgpA-6H
OBSERVABLE: OD450nm

1. KB001 mouse Fab VL N54A (Fab, V domains shown) VH: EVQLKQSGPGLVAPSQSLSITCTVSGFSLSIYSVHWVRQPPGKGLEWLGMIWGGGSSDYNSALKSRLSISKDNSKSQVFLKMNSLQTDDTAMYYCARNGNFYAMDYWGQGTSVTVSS VL: QIVLTQSPAIMSASLGERVTMTCTASSSVSSSFLHWYQQKPGSSPQLWIYSTSALASGVPARFSGSGSGTSYSLTISSMEAEDAATYYCHQYHHSPYIYTFGGGTKLEIK = 0.776
2. KB001 mouse Fab VL S32W (Fab, V domains shown) VH: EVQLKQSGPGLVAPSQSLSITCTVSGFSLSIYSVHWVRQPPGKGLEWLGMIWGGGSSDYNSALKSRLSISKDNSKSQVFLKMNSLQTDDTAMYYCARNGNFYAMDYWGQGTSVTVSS VL: QIVLTQSPAIMSASLGERVTMTCTASSSVSSWFLHWYQQKPGSSPQLWIYSTSNLASGVPARFSGSGSGTSYSLTISSMEAEDAATYYCHQYHHSPYIYTFGGGTKLEIK = 0.649
3. KB001 mouse Fab VL S30K (Fab, V domains shown) VH: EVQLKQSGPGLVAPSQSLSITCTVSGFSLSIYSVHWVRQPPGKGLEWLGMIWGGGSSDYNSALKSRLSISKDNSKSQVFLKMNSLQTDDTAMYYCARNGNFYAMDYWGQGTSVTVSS VL: QIVLTQSPAIMSASLGERVTMTCTASSSVKSSFLHWYQQKPGSSPQLWIYSTSNLASGVPARFSGSGSGTSYSLTISSMEAEDAATYYCHQYHHSPYIYTFGGGTKLEIK = 0.77

Origin of the recorded values: patent US20230365662A1
